# Study target: Heat shock factor protein 1 (Homo sapiens)
# Assay overview: ATG_HSE_CIS: Attagene CIS-FACTORIAL HepG2 Assay for human Heat Shock Transcription Factor 1 (HSE) (AID 2282953)
# Experimental setup: HepG2 HSE cis-reporter, Attagene RNA transcription; actives raise or lower the signal
Calls of active or inactive are those of the source. The calls were made as follows: active = hit-call score of the fitted dose curve at least 0.9, where 1 is the maximum; inactive = score below 0.9.
The categories you may choose from are True = active, False = inactive

Previously resolved entries follow.
FC(F)(F)C(F)(F)C(F)(F)C(F)(F)C(F)(F)C(F)(F)C(F)(F)C(F)(F)CCS
False
FC(F)(Br)C(F)(F)C(F)(F)C(F)(F)C(F)(F)C(F)(F)Br
False
CCc1ccc(C(c2ccc(CC)cc2)C(Cl)Cl)cc1
False

# outcome recorded in this test, key = O=S(=O)(OCCOC(F)(F)F)C(F)(F)F False

// next record CC(C)(C)c1ccc(OC2CCCCC2O)cc1 (stereo unspecified) False

Query c1ccc(-c2ccccc2-c2ccccc2)cc1 next False

And what about the molecule O=S(=O)(O)c1ccc2ccccc2c1 ? False

Do the same for O=C(O)C(F)(F)C(F)(F)C(F)(F)C(F)(F)C(F)(F)C(F)(F)C(F)(F)C(F)(F)C(F)(F)C(F)(F)C(F)(F)C(F)(F)F please False

// next record CCCCCCC(C)OC(=O)CCCCC(=O)OC(C)CCCCCC (stereo unspecified) False

Entry OCC(F)(F)C(F)(F)C(F)(F)C(F)(F)C(F)(F)C(F)F please False

What about this molecule? CCN(Cc1cccc(S(=O)(=O)O)c1)c1ccc(C(=C2C=CC(=[N+](CC)Cc3cccc(S(=O)(=O)O)c3)C=C2)c2ccc(O)cc2S(=O)(=O)[O-])cc1 False

Field entry: CC(=O)Nc1ccc(N=Nc2cc(C)ccc2O)cc1 False

Now consider CCCCCCCCCCCCCCCC[N+](C)(C)Cc1ccccc1 . True

Param item: CS(C)(=O)=O False

# repeat for FC(F)(F)C(F)(F)C(F)(F)N(C(F)(F)C(F)(F)C(F)(F)F)C(F)(F)C(F)(F)C(F)(F)F False

What about CCC(=O)OCCc1ccccc1 ? False

----------
# Read-out: Thrombomodulin, THBD (gene 7056)
# Assay overview: BSK_CASM3C_Thrombomodulin: BioMAP Diversity Plus: CASM3C Assay for Thrombomodulin Biomarker Activity (AID 2283051);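 also: thrombomodulin protein level measured by ELISA 24 h after dosing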
# Experimental setup: primary human coronary artery smooth muscle cells; actives raise or lower the signal
Activity calls are given as the source filed them. Rule for the calls: active = hit-call score of the fitted dose curve at least 0.9, where 1 is the maximum; inactive = score below 0.9.
Please state which outcome applies, choosing from active, inactive

FC(F)(F)C(F)(F)C(F)(F)CI
inactive

Now let's try a different one.
Each compound tested received a call. Report the one for O=C(O)C(F)(F)C(F)(F)C(F)(F)C(F)(F)C(F)(F)C(F)(F)C(F)(F)C(F)(F)Cl . inactive

----------
# Read-out: Matrix Metallopeptidase 9 (MMP9), MMP9 (gene 4318)
# Assay overview: BSK_KF3CT_MMP9: BioMAP Diversity Plus: KF3CT Assay for Matrix Metallopeptidase 9 (MMP9) Biomarker Activity (AID 2283074)
# Experimental setup: primary human keratinocytes with fibroblasts; actives raise or lower the signal
Calls of active or inactive are those of the source. The calls were made as follows: active = hit-call score of the fitted dose curve at least 0.9, where 1 is the maximum; inactive = score below 0.9.
Measurement name: outcome

Some entries whose results are on file:
C=CC/C=C/C/C=C/C/C=C/C
inactive
O=C(O)C(F)(F)C(F)(F)C(F)(F)C(F)(F)C(F)(F)C(F)(F)C(F)(F)C(F)(F)C(F)(F)C(F)(F)C(F)(F)C(F)(F)F
inactive
CCc1c(Br)c(Br)c(Br)c(Br)c1Br
inactive
C=C(C)C(=O)OCCC(F)(F)C(F)(F)C(F)(F)C(F)(F)C(F)(C(F)(F)F)C(F)(F)F
inactive
OCC(F)(F)C(F)(F)C(F)(F)C(F)F
inactive

Please go through the list and note outcome for each compound.
1. NC(=O)C(F)(F)C(F)(F)C(F)(F)C(F)(F)F
2. O=C(CC(=O)C(F)(F)C(F)(F)F)C(F)(F)F
3. FC(F)(Br)C(F)(F)C(F)(F)C(F)(F)C(F)(F)C(F)(F)Br
4. O=P(O)(O)OCCC(F)(F)C(F)(F)C(F)(F)C(F)(F)C(F)(F)C(F)(F)F

1: inactive; 2: inactive; 3: inactive; 4: inactive

Batch request: outcome per item, same order as input.
1. O=S(=O)(OCC(F)F)C(F)(F)F
2. CC(C)(C)C(=O)CC(=O)C(F)(F)C(F)(F)C(F)(F)F

["inactive", "inactive"]

----------
# Read-out: Interleukin-8 (IL8), CXCL8 (gene 3576)
# Assay overview: BSK_SAg_IL8: BioMAP Diversity Plus: SAg Assay for Interleukin-8 (IL8) Biomarker Activity (AID 2283094)
# Experimental setup: primary human HUVEC with PBMC; actives raise or lower the signal
Active and inactive are the calls of the source. How the source made its calls: active means hit-call score of the fitted dose curve at least 0.9, where 1 is the maximum; inactive means score below 0.9.
Output constraint: value belongs to y for active, n for inactive

O=C(O)C(F)(F)C(F)(F)C(F)(F)F
n

What did this assay record as the result for CC(CCl)OP(=O)(OC(C)CCl)OC(C)CCl (configuration not stated) ? n

// query: C=CC/C=C/C/C=C/C/C=C/C n

Next up: CCCCCCCCCCCCCCCC[N+](C)(C)Cc1ccccc1 y

Please do the same for O=P(O)(O)OCCC(F)(F)C(F)(F)C(F)(F)C(F)(F)C(F)(F)C(F)(F)F as well. n

Also check CCN(CC)c1ccc2c(C)cc(=O)oc2c1 n

Same read-out for CO[Si](OC)(c1ccccc1)c1ccccc1 ? n

----------
# Assay overview: CCTE_Shafer_MEA_dev_per_network_spike_spike_percent: CCTE's Neural Network Formation Assay for Percent of Spikes in a Network Spike, Shafer Lab (AID 2284054)
The source made the active and inactive calls. The calls were made as follows: active = hit-call score of the fitted dose curve at least 0.9, where 1 is the maximum; inactive = score below 0.9.
# output must be one of true (1) for active, false (0) for inactive

Could you check what this test reported for NC(=O)C(F)(F)C(F)(F)C(F)(F)C(F)(F)F ? false (0)

Another molecule to look at: OCC(F)(F)C(F)(F)C(F)(F)F false (0)

Record: COC(=O)CCC(F)(F)C(F)(F)C(F)(F)C(F)(F)F false (0)

And CC(C)(C)C(=O)CC(=O)C(F)(F)C(F)(F)C(F)(F)F ? true (1)

Same for N=C(N)C(F)(F)C(F)(F)C(F)(F)C(F)(F)C(F)(F)C(F)(F)C(F)(F)F false (0)

Let us now turn to O=S(=O)(OCC(F)F)C(F)(F)F false (0)

Do the same for OCC(F)(F)C(F)(F)C(F)(F)C(F)F please false (0)

# iterate: Cc1ccc(S(=O)(=O)OCC(F)(F)C(F)(F)C(F)(F)C(F)(F)C(F)(F)C(F)F)cc1 false (0)

Item: OC[C@@H](O)[C@@H](O)[C@H](O)[C@@H](O)CO false (0)

Entry to check: O=S(=O)(OCCOC(F)(F)F)C(F)(F)F false (0)

Entry to check: O=C(O)C(F)(F)C(F)(F)C(F)(F)C(F)(F)C(F)(F)C(F)(F)C(F)(F)C(F)(F)Cl false (0)

----------
# Assay overview: CCTE_Padilla_ZF_Score.Blood_pooling: CCTE's 144 Hour Post-fertilization zebrafish Assay Score for Blood Pooling, Padilla Lab (AID 2284415)
The source made the active and inactive calls. How the source made its calls: active means hit-call score of the fitted dose curve at least 0.9, where 1 is the maximum; inactive means score below 0.9.
Measurement name: outcome

// known answers, use as guide
O=C(O)C(F)(F)C(F)(F)OC(F)(F)F
inactive
O=C(O)C(F)(OC(F)(F)C(F)(OC(F)(F)C(F)(OC(F)(F)C(F)(F)C(F)(F)F)C(F)(F)F)C(F)(F)F)C(F)(F)F (stereo not given)
inactive
O=C(O)C(F)(F)C(F)(F)F
inactive
O=C(O)C(F)(F)C(F)(F)C(F)(F)F
inactive
O=S(=O)(OCC(F)F)C(F)(F)F
inactive
O=C(Cl)C(F)(F)C(F)(F)C(F)(F)C(F)(F)C(F)(F)C(F)(F)C(F)(F)C(F)(F)F
inactive
O=C(O)C(F)(OC(F)(F)C(F)(OC(F)(F)C(F)(F)C(F)(F)F)C(F)(F)F)C(F)(F)F (stereo not given)
inactive
O=C(O)C(F)(F)C(F)(F)C(F)(F)C(F)(F)C(F)(F)C(F)(F)C(F)(F)C(F)(F)C(F)(F)C(F)(F)C(F)(F)C(F)(F)F
inactive

I need outcome for every entry listed below, if you could help.
1. FC(F)(F)C(F)(F)C(F)(F)C(F)(F)C(F)(F)CCI
2. O=C(O)C(F)(F)C(F)(F)C(F)(F)C(F)(F)C(F)(F)C(F)(F)C(F)(F)C(F)(F)Cl

["inactive", "inactive"]

----------
# Study target: X-box-binding protein 1 (Homo sapiens) (UniProt P17861)
# Sequence (P17861 whole entry, looked up): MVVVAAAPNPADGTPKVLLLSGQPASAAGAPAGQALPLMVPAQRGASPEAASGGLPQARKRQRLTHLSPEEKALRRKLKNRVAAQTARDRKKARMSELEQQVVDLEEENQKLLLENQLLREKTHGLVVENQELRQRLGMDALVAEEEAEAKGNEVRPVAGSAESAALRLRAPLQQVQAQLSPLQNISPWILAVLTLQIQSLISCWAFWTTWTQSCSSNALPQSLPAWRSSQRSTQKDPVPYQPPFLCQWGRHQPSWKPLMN
# Assay overview: ATG_Xbp1_CIS: Attagene CIS-FACTORIAL HepG2 Assay for human X-box Binding Protein 1 (XBP1) (AID 2282972)
# Experimental setup: HepG2 XBP1 cis-element reporter, Attagene multiplex; actives raise or lower the signal
The source made the active and inactive calls. The calls were made as follows: active = hit-call score of the fitted dose curve at least 0.9, where 1 is the maximum; inactive = score below 0.9.
Response enum: active, inactive

# example entries with known answers
C=CC(=O)OCC(F)(F)C(F)(F)C(F)(F)C(F)(F)COC(=O)C=C
active
CCCCNc1ccccc1
inactive
C=C(C)C(=O)OCC(F)(F)C(F)(F)C(F)(F)C(F)(F)C(F)(F)C(F)(F)C(F)(F)F
inactive
CCCCCCCOC(=O)c1ccccc1C(=O)OCCCCCCC
inactive
C(=C(c1ccccc1)c1ccccc1)c1ccccc1
inactive
O=S(=O)(OCCOC(F)(F)F)C(F)(F)F
inactive

Now, please, on to the next compound.
Hi, do you know how COC(OC(C)=O)c1ccccc1 (configuration not stated) came out in this test? inactive
